What Effect of individual compound (RN), death ratio (%) (Table 9) was measured for each of the following?
test system: green rice leafhoppers of the strain RN; test: Test Example 3: dust spray test (20 mesh metal gauze cylinder); type: in vivo, Nephotettix cincticeps; conditions: dust; compound alone; RN strain
Supply the numeric figure in %, leaving out any unit text.

For the record CNC(=O)Oc1cccc2ccccc12 [Compound 49, 1-naphthyl-N-methylcarbamate] , what value of Effect of individual compound (RN), death ratio (%) (Table 9) is listed for green rice leafhoppers of the strain RN? 0

Give Effect of individual compound (RN), death ratio (%) (Table 9) (green rice leafhoppers of the strain RN) of the following compound: CCCNC(=O)Oc1cccc(OCC)c1 [Compound 94, 3-ethoxyphenyl-N-n-propylcarbamate] 0

Query Effect of individual compound (RN), death ratio (%) (Table 9) on green rice leafhoppers of the strain RN for CCCCNC(=O)Oc1ccccc1OC(C)C 0

Form field: Effect of individual compound (RN), death ratio (%) (Table 9) recorded for CCCNC(=O)Oc1ccccc1OC [Compound 77, 2-methoxyphenyl-N-n-propylcarbamate] with green rice leafhoppers of the strain RN (enter value) 45.0

Effect of individual compound (RN), death ratio (%) (Table 9) of C=CCNC(=O)Oc1ccccc1OC(C)C [Compound 85, 2-isopropoxyphenyl-N-allylcarbamate] on green rice leafhoppers of the strain RN? 25.0

Which measured Effect of individual compound (RN), death ratio (%) (Table 9) belongs to CNC(=O)Oc1cc(C)cc(C)c1 [Compound 40, 3,5-dimethylphenyl-N-methylcarbamate, reference compound] , tested on green rice leafhoppers of the strain RN? 0

# get_value(readout= Effect of individual compound (RN), death ratio (%) (Table 9), system= green rice leafhoppers of the strain RN) for CCOc1ccccc1OC(=O)NC [Compound 79, reference compound] 0

GET /values?readout=Effect of individual compound (RN), death ratio (%) (Table 9)&system=green rice leafhoppers of the strain RN&item= CNC(=O)ON=C(C)SC [Methomyl, reference compound] 35.0

Could you share what Effect of individual compound (RN), death ratio (%) (Table 9) was measured for CCNC(=O)Oc1ccccc1OC(C)C [Compound 82, 2-isopropoxyphenyl-N-ethylcarbamate] , tested on green rice leafhoppers of the strain RN? 15.0

# value lookup — system green rice leafhoppers of the strain RN, readout Effect of individual compound (RN), death ratio (%) (Table 9), item CCCNC(=O)Oc1ccccc1OCC [Compound 80, 2-ethoxyphenyl-N-n-propylcarbamate] 0

Quick check: Effect of individual compound (RN), death ratio (%) (Table 9) on green rice leafhoppers of the strain RN, item CNC(=O)Oc1ccccc1C(C)C [Compound 1, 2-isopropylphenyl-N-methylcarbamate, reference compound] ? 0

Request body: readout Effect of individual compound (RN), death ratio (%) (Table 9), system green rice leafhoppers of the strain RN, query CCOc1cccc(OC(=O)NC)c1 [Compound 92, reference compound] . Return the value. 0

Which measured Effect of individual compound (RN), death ratio (%) (Table 9) belongs to CNC(=O)Oc1ccccc1OC(C)C [Compound 81, 2-isopropoxyphenyl-N-methylcarbamate, reference compound] , tested on green rice leafhoppers of the strain RN? 0

Which measured Effect of individual compound (RN), death ratio (%) (Table 9) belongs to CCC(C)c1ccccc1OC(=O)NC (stereo not shown) [Compound 6, 2-sec-butylphenyl-N-methylcarbamate] , tested on green rice leafhoppers of the strain RN? 0

Give the reported Effect of individual compound (RN), death ratio (%) (Table 9) for CNC(=O)Oc1cccc2c1OC(C)(C)C2 [Carbofuran, reference compound] (system: green rice leafhoppers of the strain RN). 40.0

Return Effect of individual compound (RN), death ratio (%) (Table 9) measured with green rice leafhoppers of the strain RN given this compound: CNC(=O)Oc1cc(C)c(N(C)C)c(C)c1 [Compound 118, reference compound] 23.4
